target: T1, recombinant biotinylated CD71 extracellular domain (Sino Biologics) with an N-terminal 6His tag (human, UniProt P02786 89-760, biotinylated (sites not given)); assay: screening ELISA, ratio
T1 construct: extracellular domain; also called hCD71; huCD71
T1 sequence (P02786 other isoform, or with tags, fused parts or gaps): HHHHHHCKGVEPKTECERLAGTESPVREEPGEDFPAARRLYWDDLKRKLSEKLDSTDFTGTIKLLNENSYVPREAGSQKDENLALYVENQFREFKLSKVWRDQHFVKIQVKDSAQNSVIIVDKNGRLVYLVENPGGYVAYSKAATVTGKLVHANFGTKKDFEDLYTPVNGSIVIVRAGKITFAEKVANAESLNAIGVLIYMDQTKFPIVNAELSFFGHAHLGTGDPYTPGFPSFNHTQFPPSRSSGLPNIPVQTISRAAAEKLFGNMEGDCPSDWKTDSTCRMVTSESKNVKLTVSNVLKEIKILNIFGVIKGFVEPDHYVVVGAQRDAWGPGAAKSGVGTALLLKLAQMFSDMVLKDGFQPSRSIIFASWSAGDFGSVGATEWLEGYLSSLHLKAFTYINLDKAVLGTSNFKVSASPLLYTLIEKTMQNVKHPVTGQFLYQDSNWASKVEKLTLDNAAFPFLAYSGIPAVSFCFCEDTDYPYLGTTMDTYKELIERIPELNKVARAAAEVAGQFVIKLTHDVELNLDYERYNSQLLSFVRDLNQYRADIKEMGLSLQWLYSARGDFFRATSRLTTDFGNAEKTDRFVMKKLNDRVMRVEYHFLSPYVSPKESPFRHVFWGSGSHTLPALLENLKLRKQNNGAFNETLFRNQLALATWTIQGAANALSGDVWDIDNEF
Could you please report measured hCD71:HSA for the items listed next?
Numbers only.

Check out these entries, answers already filled in.
binder="SEQ ID NO 249 (designed binder, FN3 domain) MLPAPKNLVVSRVTEDSARLSWTAPDAAFDSFSIDYFESVGFGEAIVLTVPGSERSYDLTGLKPGTEYDVQITGVKGGPHSLPLSAIFTT" value_observed=148
binder="SEQ ID NO 158 (designed binder, FN3 domain) MLPAPKNLVVSRVTEDSARLSWTAPDAAFDSFIIDYLELDDYGEAIVLTVPGSERSYDLTGLKPGTEYPVYIYGVKGGLPSTPLSAIFTT" value_observed=1520
binder="SEQ ID NO 132 (designed binder, FN3 domain) MLPAPKNLVVSRVTEDSARLSWTAPDAAFDSFTIVYAEVTYDGEAIVLTVPGSERSYDLTGLKPGTEYDVFIEGVKGGELSWPLSAIFTT" value_observed=1170

Query: Please report the recorded hCD71:HSA for SEQ ID NO 137 (designed binder, FN3 domain) MLPAPKNLVVSRVTEDSARLSWTAPDAAFDSFEIEYDEPSVAGEAIVLTVPGSERSYDLTGLKPGTEYRVFIWGVKGGNQSWPLSAIFTT .
Result: 236
